Tested on: SR leukemia
Protocol Summary: NCI tumour cell line growth inhibition, 48 h
For each of the compounds below, state its TGI.

(Q) Item COC(=O)[C@@H]1c2c(oc3cc(CO)cc(O)c3c2=O)C=C[C@H]1O has what recorded TGI?
(A) > 100 µM

(Q) Reported TGI for CN(C(=O)Cc1ccccc1)n1cn[n+](CC(=O)OC(C)(C)C)c1 : what is it?
(A) > 10 µM

(Q) Field request: TGI | item: O=C1NC(N2CCCC(CO)C2)=N/C1=C\c1cccs1 (stereo unspecified)
(A) > 100 µM

(Q) Could you tell me which TGI is on file for c1ccc(C(Oc2noc3ccccc23)c2ccccc2)cc1 ?
(A) 51.6 µM

(Q) Would you mind telling me what TGI value was observed for CC(C)c1ccc(O)c(Cc2cc(C(C)C)cc(Cc3cc(C(C)C)ccc3O)c2O)c1 ?
(A) 4.45 µM

(Q) Using the record for FC(F)(F)c1ccccc1C1SCc2nc3ccccc3n21 (stereo unspecified) , report its TGI.
(A) > 100 µM

(Q) Name the recorded TGI for CN(C)S(=O)(=O)c1ccc2[nH]c(O)c(C3=Nc4ccccc4C3=O)c2c1 .
(A) 35.9 µM

(Q) Which TGI reading was recorded for the compound COC(=O)C1=NC(=S)NC(c2ccccc2)C1c1nc2ccccc2o1 (stereo unspecified) ?
(A) > 50 µM

(Q) What value of measured TGI is listed for CNC(=O)[C@H](Cc1ccccc1)NC(=O)N(CCC#N)CCN(C(=O)N[C@@H](Cc1ccccc1)C(=O)OC)c1ccccc1 ?
(A) > 100 µM

(Q) Endpoint output: TGI of COc1cccc(/C=C2\N=C(c3ccccc3)OC2=O)c1 . Value?
(A) 65.2 µM

(Q) Look at this compound and give its reported TGI. Nc1nc(SCc2ccccc2Cl)c2ncn(C3OC(CO)C(O)C3O)c2n1 (stereo unspecified)
(A) > 100 µM
